Cited source: the supplement of paper PMC10899765

Test system: MCF10A
PROTOCOL NOTES: one-nucleolus phenotype percent effect (relative to siNT 0% and siNOL11 100%); higher = more cells with one nucleolus (ribosome biogenesis inhibition)
CONDITION SUMMARY: 20 nM; 72 h
QUANTITY: one-nucleolus phenotype percent effect (%)

{"BIOSEQUENCE": "GAAAGCGCUUCCCUUUGCUGGA [hsa-miR-518a-3p]", "QUANTITY": "one-nucleolus phenotype percent effect", "QUANTITATIVE READOUT": 17.4}
{"BIOSEQUENCE": "CUAGGAGGCCUUGGCC [hsa-miR-4266]", "QUANTITY": "one-nucleolus phenotype percent effect", "QUANTITATIVE READOUT": 7.31}
{"BIOSEQUENCE": "AGAGGUUAUCCGUGUUAUGUUC [hsa-miR-655-5p]", "QUANTITY": "one-nucleolus phenotype percent effect", "QUANTITATIVE READOUT": 22.9}
{"BIOSEQUENCE": "AGAGAAGAAGAUCAGCCUGCA [hsa-miR-1253]", "QUANTITY": "one-nucleolus phenotype percent effect", "QUANTITATIVE READOUT": -16.8}
{"BIOSEQUENCE": "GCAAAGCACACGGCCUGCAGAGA [hsa-miR-330-3p]", "QUANTITY": "one-nucleolus phenotype percent effect", "QUANTITATIVE READOUT": -7.99}
{"BIOSEQUENCE": "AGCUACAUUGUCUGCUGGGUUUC [hsa-miR-221-3p]", "QUANTITY": "one-nucleolus phenotype percent effect", "QUANTITATIVE READOUT": 4}
{"BIOSEQUENCE": "AGGUGUUAUCCUAUCCAUUUGC [hsa-miR-4694-5p]", "QUANTITY": "one-nucleolus phenotype percent effect", "QUANTITATIVE READOUT": 24.2}
{"BIOSEQUENCE": "AGGAGAGUGGAUUCCAGGUGGU [hsa-miR-5192]", "QUANTITY": "one-nucleolus phenotype percent effect", "QUANTITATIVE READOUT": 10.4}
{"BIOSEQUENCE": "ACCUGUCUGUGGAAAGGAGCUA [hsa-miR-4421]", "QUANTITY": "one-nucleolus phenotype percent effect", "QUANTITATIVE READOUT": 15.9}
{"BIOSEQUENCE": "AAAGGUCAUUGUAAGGUUAAUGC [hsa-miR-3974]", "QUANTITY": "one-nucleolus phenotype percent effect", "QUANTITATIVE READOUT": 63.7}
{"BIOSEQUENCE": "AGAAAGGUGGAGGGGUUGUCAGA [hsa-miR-6730-5p]", "QUANTITY": "one-nucleolus phenotype percent effect", "QUANTITATIVE READOUT": 47.3}
{"BIOSEQUENCE": "ACAGACUUGCUGUGAUGUUCA [hsa-miR-499b-5p]", "QUANTITY": "one-nucleolus phenotype percent effect", "QUANTITATIVE READOUT": 2.65}
{"BIOSEQUENCE": "UUAGUCUCAUGAUCAGACACA [hsa-miR-4474-5p]", "QUANTITY": "one-nucleolus phenotype percent effect", "QUANTITATIVE READOUT": -23.4}
{"BIOSEQUENCE": "AACACACCUAUUCAAGGAUUCA [hsa-miR-362-3p]", "QUANTITY": "one-nucleolus phenotype percent effect", "QUANTITATIVE READOUT": -7.86}
{"BIOSEQUENCE": "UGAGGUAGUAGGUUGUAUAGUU [hsa-let-7a-5p]", "QUANTITY": "one-nucleolus phenotype percent effect", "QUANTITATIVE READOUT": -24.4}
{"BIOSEQUENCE": "ACUCGCAUCCUUCCCUUGGCAG [hsa-miR-6814-3p]", "QUANTITY": "one-nucleolus phenotype percent effect", "QUANTITATIVE READOUT": -25.3}
{"BIOSEQUENCE": "GGGGUAUUGUUUCCGCUGCCAGG [hsa-miR-503-3p]", "QUANTITY": "one-nucleolus phenotype percent effect", "QUANTITATIVE READOUT": 39}
{"BIOSEQUENCE": "CCUGGCAUAUUUGGUAUAACUU [hsa-miR-4720-5p]", "QUANTITY": "one-nucleolus phenotype percent effect", "QUANTITATIVE READOUT": 1.6}
{"BIOSEQUENCE": "UGAGACCAGGACUGGAUGCACC [hsa-miR-4786-5p]", "QUANTITY": "one-nucleolus phenotype percent effect", "QUANTITATIVE READOUT": -5.75}
{"BIOSEQUENCE": "GCGGUGAUCCCGAUGGUGUGAGC [hsa-miR-598-5p]", "QUANTITY": "one-nucleolus phenotype percent effect", "QUANTITATIVE READOUT": -24}
{"BIOSEQUENCE": "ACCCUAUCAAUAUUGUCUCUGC [hsa-miR-454-5p]", "QUANTITY": "one-nucleolus phenotype percent effect", "QUANTITATIVE READOUT": -29.8}
{"BIOSEQUENCE": "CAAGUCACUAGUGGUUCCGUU [hsa-miR-224-5p]", "QUANTITY": "one-nucleolus phenotype percent effect", "QUANTITATIVE READOUT": 15.4}
{"BIOSEQUENCE": "CGGGGCCAGAGCAGAGAGC [hsa-miR-6845-5p]", "QUANTITY": "one-nucleolus phenotype percent effect", "QUANTITATIVE READOUT": 9.59}
{"BIOSEQUENCE": "CAAAAACUGCAAUUACUUUUGC [hsa-miR-548aq-3p]", "QUANTITY": "one-nucleolus phenotype percent effect", "QUANTITATIVE READOUT": -26.6}
{"BIOSEQUENCE": "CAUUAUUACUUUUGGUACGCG [hsa-miR-126-5p]", "QUANTITY": "one-nucleolus phenotype percent effect", "QUANTITATIVE READOUT": -14.9}
{"BIOSEQUENCE": "ACUGGCUAGGGAAAAUGAUUGGAU [hsa-miR-664a-5p]", "QUANTITY": "one-nucleolus phenotype percent effect", "QUANTITATIVE READOUT": 16.3}
{"BIOSEQUENCE": "GGGGGGUGUGGAGCCAGGGGGC [hsa-miR-6752-5p]", "QUANTITY": "one-nucleolus phenotype percent effect", "QUANTITATIVE READOUT": -21.9}
{"BIOSEQUENCE": "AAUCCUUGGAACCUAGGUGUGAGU [hsa-miR-362-5p]", "QUANTITY": "one-nucleolus phenotype percent effect", "QUANTITATIVE READOUT": -1.23}
{"BIOSEQUENCE": "AAGCCCUGUCUCCUCCCAUCU [hsa-miR-6779-3p]", "QUANTITY": "one-nucleolus phenotype percent effect", "QUANTITATIVE READOUT": 9.83}
{"BIOSEQUENCE": "AGUGUGGCUUUCUUAGAGC [hsa-miR-644a]", "QUANTITY": "one-nucleolus phenotype percent effect", "QUANTITATIVE READOUT": 93.5}
{"BIOSEQUENCE": "UUUUGCAUGACCCUGGGAGUAGG [hsa-miR-3680-3p]", "QUANTITY": "one-nucleolus phenotype percent effect", "QUANTITATIVE READOUT": 11.5}
{"BIOSEQUENCE": "CUGAAGCUCAGAGGGCUCUGAU [hsa-miR-127-5p]", "QUANTITY": "one-nucleolus phenotype percent effect", "QUANTITATIVE READOUT": 39}
{"BIOSEQUENCE": "CUUAGACUGCCAGACUCCCUGA [hsa-miR-7702]", "QUANTITY": "one-nucleolus phenotype percent effect", "QUANTITATIVE READOUT": -29.9}
{"BIOSEQUENCE": "UCGUGUCCCUCUUGUCCACAG [hsa-miR-6774-3p]", "QUANTITY": "one-nucleolus phenotype percent effect", "QUANTITATIVE READOUT": -27}
{"BIOSEQUENCE": "UCUGGCCUUGACUUGACUCUUU [hsa-miR-3922-3p]", "QUANTITY": "one-nucleolus phenotype percent effect", "QUANTITATIVE READOUT": -2.7}
{"BIOSEQUENCE": "AGCUACAUCUGGCUACUGGGU [hsa-miR-222-3p]", "QUANTITY": "one-nucleolus phenotype percent effect", "QUANTITATIVE READOUT": -5.3}

---

Test system: MCF10A
PROTOCOL NOTES: 5+ nucleoli phenotype percent effect (relative to siNT 0% and siKIF11 100%); higher = more cells with five or more nucleoli
CONDITION SUMMARY: 20 nM; 72 h
QUANTITY: 5+ nucleoli phenotype percent effect

{"BIOSEQUENCE": "UGAGUGUGUGUGUGUGAGUGUGU [hsa-miR-574-5p]", "RESULT": "-4.79%"}
{"BIOSEQUENCE": "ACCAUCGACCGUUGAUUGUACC [hsa-miR-181a-3p]", "RESULT": "21.1%"}
{"BIOSEQUENCE": "CCUGUUCUCCAUUACUUGGCUC [hsa-miR-26b-3p]", "RESULT": "-23.3%"}
{"BIOSEQUENCE": "AAAGUUCUGAGACACUCCGACU [hsa-miR-148a-5p]", "RESULT": "9.44%"}
{"BIOSEQUENCE": "GGCUUUCUAGUCUCAGCUCUCC [hsa-miR-3160-5p]", "RESULT": "38.5%"}
{"BIOSEQUENCE": "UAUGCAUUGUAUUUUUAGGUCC [hsa-miR-586]", "RESULT": "54%"}
{"BIOSEQUENCE": "AAAAGCUGGGUUGAGAGGGCAA [hsa-miR-320b]", "RESULT": "-10.2%"}
